# Test system: Fibrinogen (Alexa647-labelled)
# Experiment notes: fibrinogen binders on compound microarrays, profiling panel, artefact control for SMM control-protein annotation, biochemical, small-molecule microarray, 635/667 nm fluorescence (AID 1131);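 further: z-score merges 667 nm fluorescence with per-spot signal-to-noise over triplicate slides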
# Measurement context: fibrinogen-A647 binding fluorescence, higher = more signal
Please respond with reported composite z-score for every item in the list.
Give bare numbers.

CC(C)N1CC=CC23O[C@@H]4C=CCOC(=O)[C@@H]4[C@H]2C(=O)N(CCO)[C@@H]3C1=O (stereo partly specified)
-0.766

Would you mind listing composite z-score for each of the following molecules?
1. O=C1N(CCS(=O)(=O)c2ccccc2)Cc2ccccc2[C@H]2OC(c3ccc(OCCCO)cc3)=N[C@@]12CCS(=O)(=O)c1ccccc1
2. Cc1ccc(S[C@]2(C(=O)NCc3ccccc3)CC(=O)N(Cc3ccccc3Cl)[C@@H]2c2ccc(CO)cc2I)cc1
3. COCCOC(=O)N1C(=O)[C@@]2(c3cc(C#CCNC(N)=O)ccc31)[C@H](C(=O)N1CCc3cc(OC)c(OC)cc3C1)[C@H]1C(=O)O[C@H](c3ccccc3)[C@H](c3ccccc3)N1[C@@H]2c1ccc(OCCO)cc1
4. COc1ccccc1CN1C(=O)c2ccccc2[C@@H](C(=O)NCCN2CCOCC2)[C@@H]1c1ccc(CO)cc1
5. CCOC(=O)C1=CC[C@@H](c2ccccc2Cl)N(S(=O)(=O)c2ccc(C)cc2)C1
6. COCCOC(=O)N1C(=O)[C@@]2(c3cc(C#CCC(C(=O)OC)C(=O)OC)ccc31)[C@H](c1ccc(O)cc1)N1[C@H](c3ccccc3)[C@H](c3ccccc3)OC(=O)[C@H]1[C@@H]2C(N)=O
7. COc1cc(C(O)C2C=CC3C(=O)N(c4ccccc4)C(=O)C3N2Nc2ccc(C#N)cc2)cc(OC)c1OC (stereo unspecified)

Return:
0.561
0.999
0.108
0.234
0.838
0.75
1.11

Would you mind listing composite z-score for each of the following molecules?
1. CCCC[C@@H]1C[C@H]1[C@@H](NC(=O)c1ccc(-c2ccccc2)cc1)c1ccc(-c2ccccc2)cc1
2. CC(C)c1ccc(NN2C(C(O)c3c(F)cccc3Cl)C=CC3C(=O)N(c4ccccc4)C(=O)C32)cc1 (stereo unspecified)
3. COCCOC(=O)N1C(=O)[C@@]2(c3cc(C#CCNC(N)=O)ccc31)[C@H](c1ccccc1OCCO)N1[C@H](c3ccccc3)[C@H](c3ccccc3)OC(=O)[C@H]1[C@@H]2C(N)=O
4. COCCOC(=O)N1C(=O)[C@@]2(c3cc(C#CCNC(N)=O)ccc31)[C@H](c1ccc(OCCO)cc1)N1[C@H](c3ccccc3)[C@H](c3ccccc3)OC(=O)[C@H]1[C@@H]2C(=O)N1CCc2cc(OC)c(OC)cc2C1
5. CC(C)C(O)C1C=CC2C(=O)N(c3ccccc3)C(=O)C2N1Nc1ccc(C#N)cc1 (stereo unspecified)
6. COCCOC(=O)N1C(=O)[C@@]2(c3cc(C#CCCO)ccc31)[C@H](c1ccc(O)cc1)N1[C@H](c3ccccc3)[C@H](c3ccccc3)OC(=O)[C@H]1[C@@H]2C(N)=O
7. NC(=O)NCC#Cc1ccc2c(c1)[C@]1(C(=O)N2)[C@H](C(=O)NC[C@H](O)c2ccccc2)[C@H]2C(=O)O[C@H](c3ccccc3)[C@H](c3ccccc3)N2[C@@H]1c1ccc(O)cc1
8. O=C(O)[C@@]1(Cc2ccccc2)N=C(c2ccc(OCCCO)cc2)O[C@H]1c1ccccc1

Return:
[0.348, 0.935, 0.963, 0.531, 1.01, 0.19, 0.673, 0.967]

Where do the numbers come from? From PubChem BioAssay.
